# System: L1210 leukemia ip in BDF1 mice, survival T/C
# assay_comment: NCI In Vivo Anticancer Drug Screen. Data for tumor model L1210 Leukemia (intraperitoneal) in B6D2F1 (BDF1) mice
# assay_setup: endpoint: mean survival time; dose: 200.0 mg/kg/injection; schedule: Q04DX003 (ip); vehicle: saline
Toxic doses and inconclusive results are not listed. Cut-off read from the data, not from the text of the source: active = T/C of 150% or more; inactive = T/C below 125%.
Outcomes: label 1 = active, label 0 = inactive

>  <compound>
CCCCN(CCCC)C(=O)CCC

>  <discrete_label>
label 0

$$$$
>  <compound>
O=C(O)CN(CC(=O)O)c1ccc(/C=C/c2ccc(N(CC(=O)O)CC(=O)O)c(S(=O)(=O)O)c2)cc1S(=O)(=O)O

>  <discrete_label>
label 0

$$$$
>  <compound>
NN1CCCC1

>  <discrete_label>
label 0

$$$$
>  <compound>
O/N=c1/cc(-c2ccc(Cl)cc2)ss1

>  <discrete_label>
label 0

$$$$
>  <compound>
Cc1cccc2c(Nc3ccc(NS(C)(=O)=O)cc3)c3ccccc3nc12

>  <discrete_label>
label 1

$$$$
>  <compound>
O=C(OCCNC(=O)N1CCOCC1)OCCNC(=O)N1CCOCC1

>  <discrete_label>
label 0

$$$$
>  <compound>
CC(C)N(CCO)CCO

>  <discrete_label>
label 0

$$$$
>  <compound>
O=C(CS)NNC(=O)CS

>  <discrete_label>
label 0

$$$$
>  <compound>
CC(NC(=O)OCc1ccccc1)C(=O)ON1C(=O)CCC1=O (configuration not stated)

>  <discrete_label>
label 0

$$$$
>  <compound>
O=C(O)C(O)C(O)C(O)C(O)CO (configuration not stated)

>  <discrete_label>
label 0

$$$$
>  <compound>
Nc1nc2c(c(-c3ccccc3)n1)CN(c1ccc(Br)cc1)C2=O

>  <discrete_label>
label 0

$$$$
>  <compound>
CC(C)(C)CC(C)(C)c1ccc(OCCOc2ccc(C(N)=O)cc2[N+](=O)[O-])cc1

>  <discrete_label>
label 0

$$$$

====

# Tested on: L1210 leukemia ip in BDF1 mice, survival T/C
# assay_comment: NCI In Vivo Anticancer Drug Screen. Data for tumor model L1210 Leukemia (intraperitoneal) in B6D2F1 (BDF1) mice
# assay_setup: endpoint: mean survival time; dose: 100.0 mg/kg/injection; schedule: Q04DX003 (ip); vehicle: Klucel (hydroxypropylcellulose) (HPC); higher = longer survival
Toxic doses and inconclusive results are not listed. Square brackets hold non-standard residues; d marks the D form. Peptide text beside a SMILES is read from it. * marks the point of attachment. ξ: configuration not given here. Cbz = O=C(OCc1ccccc1)*; OBn = c1ccc(CO*)cc1; ξP = O=C(O)C1CCCN1
# maps each entry to its T/C

>  <compound>
O=C(OCC#CC#CCOC(=O)c1ccccc1)c1ccccc1

>  <T/C>
94 % of control

$$$$
>  <compound>
O=[N+]([O-])c1ccc(CC(O)c2ccccc2)cc1 (centres undefined)

>  <T/C>
102 % of control

$$$$
>  <compound>
O=CNc1ccccc1Sc1ccc(C(=O)O)cc1[N+](=O)[O-]

>  <T/C>
100 % of control

$$$$
>  <compound>
O=C(NCCCCCCCCCCNC(=O)C(Cl)Cl)C(Cl)Cl

>  <T/C>
98 % of control

$$$$
>  <compound>
COc1ccc(C=O)c(O)c1

>  <T/C>
97 % of control

$$$$
>  <compound>
Cc1cc([N+](=O)[O-])c(C)cc1Cl

>  <T/C>
98 % of control

$$$$
>  <compound>
O=S(=O)(Nc1ccc(C(F)(F)F)cc1)c1ccc(C(F)(F)F)cc1

>  <T/C>
95 % of control

$$$$
>  <compound>
O=C(NCC(=O)N1CCCC1C(=O)OCc1ccccc1)OCc1ccccc1 (stereo not drawn) (Cbz-Gly-[ξP]-OBn)

>  <T/C>
106 % of control

$$$$
>  <compound>
CN1C(=O)CCS(=O)(=O)C1c1ccc(Cl)c(Cl)c1 (centres undefined)

>  <T/C>
105 % of control

$$$$
>  <compound>
CCNCc1cc(Nc2cc(C)nc(/N=C(\N)Nc3ccc(Cl)c(Cl)c3)n2)ccc1OC

>  <T/C>
95 % of control

$$$$
>  <compound>
CC(C)(O)C(=O)NCNC(=O)C(C)(C)O

>  <T/C>
103 % of control

$$$$
>  <compound>
O=C(NCCCl)Nc1cccc2cccnc12

>  <T/C>
100 % of control

$$$$
>  <compound>
OCCCNc1nc2cc(Br)ccc2c2ccc(Br)cc12

>  <T/C>
90 % of control

$$$$
>  <compound>
O=C(Nc1ccc([N+](=O)[O-])cc1Cl)SCc1ccccc1

>  <T/C>
92 % of control

$$$$
>  <compound>
NC(CSCCc1ccc2ccccc2n1)C(=O)O (centres undefined)

>  <T/C>
100 % of control

$$$$
>  <compound>
ClC12OOC(c3ccccc3)(O1)C(c1ccccc1)c1ccccc12 (centres undefined)

>  <T/C>
93 % of control

$$$$
>  <compound>
CCc1ccccc1NC(=O)c1cccc(C(=O)Nc2ccccc2CC)c1

>  <T/C>
91 % of control

$$$$
>  <compound>
O=C1CCCSc2ccccc21

>  <T/C>
108 % of control

$$$$
>  <compound>
CC(=O)CC(=O)CC(=O)c1ccccc1

>  <T/C>
96 % of control

$$$$

====

Each item that follows carries a reported T/C.
# Tested on: L1210 leukemia ip in BDF1 mice, survival T/C
# assay_comment: NCI In Vivo Anticancer Drug Screen. Data for tumor model L1210 Leukemia (intraperitoneal) in B6D2F1 (BDF1) mice
# assay_setup: endpoint: mean survival time; dose: 12.5 mg/kg/injection; schedule: Q01DX009 (ip); vehicle: saline; higher = longer survival
Toxic doses and inconclusive results are not listed.
property_measured: T/C

>  <molecule>
CCC1=[N+](C)C(C)(C)CC(C)O1 (stereo not drawn)

>  <result>
102 % of control

$$$$
>  <molecule>
C/C(=N/N(C)C)c1ccc(F)cc1

>  <result>
98 % of control

$$$$
>  <molecule>
Cn1cnc([N+](=O)[O-])c1[Se]c1ncnc2c1ccn2C1OC(CO)C(O)C1O (stereo not drawn)

>  <result>
105 % of control

$$$$
>  <molecule>
Cc1[nH]nc(C(N)=O)c1N=NN(C)C

>  <result>
108 % of control

$$$$
>  <molecule>
CC(C)(C)C1CC(C(F)(F)F)(C(F)(F)F)OS(=O)O1 (stereo not drawn)

>  <result>
96 % of control

$$$$
>  <molecule>
C[N+]1(CCC(c2ccccc2)c2ccccc2)CCCCC1

>  <result>
97 % of control

$$$$
>  <molecule>
O=C(O)CC(NC(=O)CP(=O)(O)O)C(=O)O (stereo not drawn)

>  <result>
98 % of control

$$$$
>  <molecule>
C[N+]1(C)CCCCC1

>  <result>
106 % of control

$$$$

====

Reported T/C values are given for each entry in this list.
# Test system: L1210 leukemia ip in BDF1 mice, survival T/C
# assay_comment: NCI In Vivo Anticancer Drug Screen. Data for tumor model L1210 Leukemia (intraperitoneal) in B6D2F1 (BDF1) mice
# assay_setup: endpoint: mean survival time; dose: 200.0 mg/kg/injection; schedule: Q04DX002 (ip); vehicle: Klucel (hydroxypropylcellulose) (HPC); higher = longer survival
Inconclusive results and toxic doses are left out.

>  <compound>
CCCC(=O)Nc1cccc2ccccc12

>  <T/C>
107 % of control

$$$$
>  <compound>
CC1=CC2C(C(C)C)CC1C1C(=O)OC(=O)C21 (configuration not stated)

>  <T/C>
100 % of control

$$$$
>  <compound>
CC(NC(=O)NC(C)(C)C)c1ccccc1 (configuration not stated)

>  <T/C>
105 % of control

$$$$
>  <compound>
CC(=O)NNC(N)=S

>  <T/C>
87 % of control

$$$$
>  <compound>
O=C(/C=C(\C(=O)c1ccccc1)c1ccccc1)c1ccc(-c2ccccc2)cc1

>  <T/C>
101 % of control

$$$$
>  <compound>
CCCCCCC(=O)N1CC(C)OC(C)C1 (configuration not stated)

>  <T/C>
96 % of control

$$$$
>  <compound>
O=C(O)COc1c(F)cc([N+](=O)[O-])cc1[N+](=O)[O-]

>  <T/C>
91 % of control

$$$$
>  <compound>
Nc1nc(N)c(N)c(Nc2ccc(Cl)cc2)n1

>  <T/C>
101 % of control

$$$$
>  <compound>
COC(=O)C1(C)CCCC2(C)C3CCC4(C)CC3(CCO4)CCC12 (configuration not stated)

>  <T/C>
87 % of control

$$$$
>  <compound>
COc1cc2c(cc1OC)C1Cc3ccc(OC)c(OC)c3CN1CC2 (configuration not stated)

>  <T/C>
103 % of control

$$$$
>  <compound>
O=C1c2ccccc2S(=O)N1OCc1ccccc1 (configuration not stated)

>  <T/C>
100 % of control

$$$$
>  <compound>
Nc1ccccc1SC(CC(=O)c1ccccc1)c1cccc([N+](=O)[O-])c1 (configuration not stated)

>  <T/C>
110 % of control

$$$$

Data credit: PubChem BioAssay AID248
